Data credit: the supplement of paper PMC10290057

Test system: HCT116
Assay: efficacy (fitted maximal change in viability relative to DMSO control); higher = less cytotoxic (negative = loss of viability)
Settings: 48 h
Counter-ions that a name gives are not always drawn.
Below: a set of entries, each annotated with reported efficacy.
Give just the numeric value; % need not be written.

>  <Molecule>
Nc1ccc(C(=O)Nc2cccc(-c3nc(N4CCOCC4)c4oc5ncccc5c4n3)c2)cn1

>  <Test Target>
HCT116;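 further: Luminescence-based viability readout, five doses per compound, normalized against on-plate DMSO and empty-well controls, followed by dose-response curve fitting for every drug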

>  <efficacy (%)>
-88.1

$$$$

Here is the next item to consider.
[in] Give the measured efficacy of CN[C@H](CC(C)C)C(=O)N[C@H]1C(=O)N[C@@H](CC(N)=O)C(=O)N[C@H]2C(=O)N[C@H]3C(=O)N[C@H](C(=O)N[C@H](C(=O)O)c4cc(O)cc(O)c4-c4cc3ccc4O)[C@H](O)c3ccc(c(Cl)c3)Oc3cc2cc(c3O[C@@H]2O[C@H](CO)[C@@H](O)[C@H](O)[C@H]2O[C@H]2C[C@](C)(N)[C@H](O)[C@H](C)O2)Oc2ccc(cc2Cl)[C@H]1O [Vancomycin hydrochloride] .
[out] -27
